TGT: glutathione reductase (GR) (Saccharomyces cerevisiae)
Sequence (P41921 whole entry): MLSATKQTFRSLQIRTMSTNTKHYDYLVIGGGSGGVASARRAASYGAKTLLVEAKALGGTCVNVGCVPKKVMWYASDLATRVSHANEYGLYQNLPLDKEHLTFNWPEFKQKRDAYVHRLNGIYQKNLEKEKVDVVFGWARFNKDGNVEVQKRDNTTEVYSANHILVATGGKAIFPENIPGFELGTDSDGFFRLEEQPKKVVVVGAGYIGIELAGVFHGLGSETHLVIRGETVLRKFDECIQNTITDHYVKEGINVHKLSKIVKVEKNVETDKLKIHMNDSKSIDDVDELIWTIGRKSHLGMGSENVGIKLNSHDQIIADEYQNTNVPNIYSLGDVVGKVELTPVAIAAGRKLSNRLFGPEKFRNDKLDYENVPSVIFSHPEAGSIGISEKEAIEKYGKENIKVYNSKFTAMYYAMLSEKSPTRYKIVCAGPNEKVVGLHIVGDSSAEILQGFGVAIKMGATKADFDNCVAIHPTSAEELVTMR
MEASUREMENT_NAME: IC50

What is its IC50 for glutathione reductase (GR) (Saccharomyces cerevisiae)? Entry: N[C@@H](CCC(=O)N[C@@H](CS)C(=O)NCC(=O)O)C(=O)O [GSH, Glutathione] ~10 mM
